# Target: Human JAK2 (Homo sapiens (Human))
# Sequence (O60674 whole entry): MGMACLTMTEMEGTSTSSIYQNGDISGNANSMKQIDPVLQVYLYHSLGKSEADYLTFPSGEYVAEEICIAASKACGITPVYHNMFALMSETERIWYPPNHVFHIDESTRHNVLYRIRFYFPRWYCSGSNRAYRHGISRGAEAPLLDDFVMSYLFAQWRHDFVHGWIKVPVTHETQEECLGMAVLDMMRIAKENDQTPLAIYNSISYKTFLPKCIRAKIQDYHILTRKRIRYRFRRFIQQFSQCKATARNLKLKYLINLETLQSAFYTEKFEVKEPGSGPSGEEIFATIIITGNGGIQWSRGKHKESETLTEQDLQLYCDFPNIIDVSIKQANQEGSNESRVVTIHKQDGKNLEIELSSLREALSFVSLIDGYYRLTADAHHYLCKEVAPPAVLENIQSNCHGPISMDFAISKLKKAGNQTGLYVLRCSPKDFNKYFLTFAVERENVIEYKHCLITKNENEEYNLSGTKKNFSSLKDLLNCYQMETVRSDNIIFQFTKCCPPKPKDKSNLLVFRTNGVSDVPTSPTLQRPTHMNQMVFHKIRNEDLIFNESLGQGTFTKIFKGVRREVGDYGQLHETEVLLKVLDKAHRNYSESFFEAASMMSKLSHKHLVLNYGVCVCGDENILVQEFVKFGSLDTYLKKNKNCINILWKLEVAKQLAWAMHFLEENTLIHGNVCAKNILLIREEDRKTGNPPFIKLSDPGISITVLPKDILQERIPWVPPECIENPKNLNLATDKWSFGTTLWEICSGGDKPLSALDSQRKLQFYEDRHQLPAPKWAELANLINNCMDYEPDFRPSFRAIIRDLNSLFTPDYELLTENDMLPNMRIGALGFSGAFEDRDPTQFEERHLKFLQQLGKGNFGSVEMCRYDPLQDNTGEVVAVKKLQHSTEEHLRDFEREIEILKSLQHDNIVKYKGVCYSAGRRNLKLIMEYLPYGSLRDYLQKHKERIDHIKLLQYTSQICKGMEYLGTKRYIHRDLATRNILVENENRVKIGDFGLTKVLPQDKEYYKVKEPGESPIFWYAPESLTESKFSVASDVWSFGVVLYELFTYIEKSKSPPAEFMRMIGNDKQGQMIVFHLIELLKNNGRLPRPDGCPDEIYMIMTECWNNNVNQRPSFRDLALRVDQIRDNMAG
# Measurement Protocol: In vitro kinase inhibition test, JAK2 (33P-ATP filter scintillation)
# Type: biochemical
# Experimental Conditions: compound at 1 uM; read-out: JAK2 kinase-phosphorylation inhibitory level (% inhibition)
# Description: 1. In Vitro Kinase Inhibition Test Kinases used were human-derived JAK1, JAK2, JAK3, and TYK2 (Millipore, Germany). Each of these kinases was diluted with a suitable buffer solution as described below, and then mixed with reagents. […]
Measure: inhibition at 1 µM
// unit must come after the numeric part

# example entries with known answers
| Molecule | Target | inhibition at 1 µM |
| --- | --- | --- |
| CN(c1ncnc2[nH]ccc12)[C@@H]1CN(S(=O)(=O)c2ccccc2)CC12CC2 | Human JAK2 (Homo sapiens (Human)) | 10% |
| CN(c1ncnc2[nH]ccc12)[C@H]1CN(C(=O)c2cccc(C(F)(F)F)c2)CC12CC2 | Human JAK2 (Homo sapiens (Human)) | -17% |
| CC(C)COC(=O)N1C[C@@H](N(C)c2ncnc3[nH]ccc23)C2(CC2)C1 | Human JAK2 (Homo sapiens (Human)) | 24% |
| CN(c1ncnc2[nH]ccc12)[C@H]1CN(C(=S)Nc2cc(C(F)(F)F)cc(C(F)(F)F)c2)CC12CC2 | Human JAK2 (Homo sapiens (Human)) | -26% |
| CN(c1ncnc2[nH]ccc12)[C@H]1CN(C(=S)CC#N)CC12CC2 | Human JAK2 (Homo sapiens (Human)) | 80% |

Prompt line: Can you share its inhibition at 1 µM? I mean this molecule: `CCCCCN1C[C@H](N(C)c2ncnc3[nH]ccc23)C2(CC2)C1`
Response line: -19%

Prompt line: # get_value(readout='inhibition at 1 µM', item= `CC(=O)NCC(=O)N1C[C@H](N(C)c2ncnc3[nH]ccc23)C2(CC2)C1` )
Response line: -17%

Prompt line: For the molecule `CN(c1ncnc2[nH]ccc12)[C@H]1CN(C(=O)Nc2ccc(F)cc2)CC12CC2` , what inhibition at 1 µM is on record?
Response line: 6%
